biological target: human A2a receptor (Homo sapiens); construct: purchased Perkin-Elmer RBHA2AM400UA; host or cells: HEK293 cells, used as a membrane preparation; experiment: A2a receptor competition binding assay (Scintillation Proximity); details: membranes from HEK293 cells expressing human A2a receptor; 0.5 nM tritiated ligand; Cheng-Prusoff; read-out: A2a Ki
Sequence (P29274 whole entry): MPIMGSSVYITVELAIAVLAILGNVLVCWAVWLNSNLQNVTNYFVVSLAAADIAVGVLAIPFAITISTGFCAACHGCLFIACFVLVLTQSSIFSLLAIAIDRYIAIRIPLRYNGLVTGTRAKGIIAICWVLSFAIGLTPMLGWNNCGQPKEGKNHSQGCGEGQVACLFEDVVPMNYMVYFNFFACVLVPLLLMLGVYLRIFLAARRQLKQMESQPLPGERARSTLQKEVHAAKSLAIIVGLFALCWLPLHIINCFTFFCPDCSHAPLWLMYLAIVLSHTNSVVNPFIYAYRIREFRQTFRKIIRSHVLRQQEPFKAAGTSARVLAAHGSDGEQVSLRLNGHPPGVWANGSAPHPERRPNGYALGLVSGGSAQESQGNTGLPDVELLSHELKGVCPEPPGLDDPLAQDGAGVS
With a cut-off of 30 nM, any Ki strictly below it is called YES; any Ki meeting it or above is called NO.

Reference set (6 entries):
COc1cccc2c1nc(N)n1cc(Cc3cccnc3Cl)nc21 [Ex-38] | YES
Nc1nc2c(F)cccc2c2nc(CC3CCN(C(=O)c4ncccn4)CC3)cn12 [Ex-326] | NO
Nc1nc2ccccc2c2nc(CN3CCN(c4ccc(F)cc4F)CC3)cn12 [Ex-116] | NO
Nc1nc2c(F)cccc2c2nc(C(=O)N3CCC4(CCCNC4)CC3)cn12 [Ex-270] | NO
COc1cccc2c1nc(N)n1cc(C(=O)N3CCCC4(C3)CC(C)(C)OC4=O)nc21 (stereo not shown) [Ex-229] | YES
COc1cccc2c1nc(N)n1cc(Cc3cc(C(F)(F)F)ccc3N3CCOCC3)nc21 [Ex-30] | NO

For this molecule, is Ki lower than 30 nM? COCCOc1ccc(N2CCN(Cc3ccccc3Cc3cn4c(N)nc5c(OC)cccc5c4n3)CC2)cc1 [Ex-66]
YES

Check if Ki falls below 30 nM for Nc1nc2c(F)cccc2c2nc(-c3ccccc3CO)cn12 [Ex-107] .
YES

For this molecule, is Ki lower than 30 nM? Nc1nc2c(F)cccc2c2nc(Cc3ccc(-c4cnccn4)cc3)cn12 [Ex-82]
YES

A record lists Nc1nc2ccccc2c2nc(Cc3ccccc3C(F)(F)F)cn12 [Ex-14] . Is its Ki below 30 nM?
YES

Hello, is Ki of the following molecule strictly smaller than 30 nM? COc1cccc2c1nc(N)n1cc(C(=O)N3C[C@@H](C)O[C@H](C)C3)nc21 [Ex-239]
NO

* * *

Give Ki for every item shown.
Target: human A2a receptor (Homo sapiens)
Construct: purchased Perkin-Elmer RBHA2AM400UA; host or cells: HEK293 cells, used as a membrane preparation
Assay: A2a receptor competition binding assay (Scintillation Proximity)
Conditions: membranes from HEK293 cells expressing human A2a receptor; 0.5 nM tritiated ligand; Cheng-Prusoff; read-out: A2a Ki
Description: Binding affinities of compounds of the invention for the human A2a receptor were determined in a competition binding assay using Scintillation Proximity technology. […] The beads were then allowed to settle to the bottom of the wells for 1 hr, after which the membrane-associated radioactivity was determined by scintillation counting in a TopCount microplate reader. Ki values were determined using the Cheng-Prusoff equation. […]

# annotated cases, reported Ki shown
COc1ccc(C(=O)N2CCC(Cc3cn4c(N)nc5c(F)cccc5c4n3)CC2)nc1 [Ex-327] | 21 nM
COc1cccc2c1nc(N)n1cc(Cc3ccccc3CN3CCN(c4ccccc4)CC3)nc21 [Ex-67] | 2.2 nM
Nc1nc2c(F)cccc2c2nc(CC3CCN(Cc4ccccc4)CC3)cn12 [Ex-304] | 45 nM
Cc1noc(C)c1-c1cccc2c1nc(N)n1cc(CNCc3ccccc3)nc21 [Ex-153] | > 2200 nM
CC(=O)Nc1ccc2c(c1)CCN(Cc1cn3c(N)nc4c(F)cccc4c3n1)C2 [Ex-128] | 97 nM

Parameters: items (list). Returns: Ki for each item.
1. Nc1nc2c(F)cccc2c2nc(CC3CCN(C(=O)c4cccnc4)CC3)cn12 [Ex-317]
2. CC(=O)Nc1ccc2c(c1)CN(C(=O)c1cn3c(N)nc4c(F)cccc4c3n1)CC2 [Ex-244]
3. COc1cccc2c1nc(N)n1cc(CCc3ccccc3)nc21 [Ex-102]
4. Nc1nc2c(F)cccc2c2nc(C(=O)N3CCCC4(CCNC4)C3)cn12 (stereo not drawn) [Ex-266]

1. 100 nM
2. 49.6 nM
3. 3.8 nM
4. 220 nM
